- assayName: Plasma pharmacokinetic parameters (LC-MS/MS)
- measurementSetup: human, plasma, oral, 2.5 mg, Cmax, total everolimus plasma; mean
propertyLabel: Cmax (nM)
One number for each entry, in nM.

# return recorded Cmax for entry CO[C@H]1C[C@@H]2CC[C@@H](C)[C@@](O)(O2)C(=O)C(=O)N2CCCC[C@H]2C(=O)O[C@H]([C@H](C)C[C@@H]2CC[C@@H](OCCO)[C@H](OC)C2)CC(=O)[C@H](C)/C=C(\C)[C@@H](O)[C@@H](OC)C(=O)[C@H](C)C[C@H](C)/C=C/C=C/C=C/1C [Everolimus, everolimus] 33.7

----------
- assayName: CNS penetration: total and unbound drug concentrations in tumor regions, CSF and plasma (LC-MS/MS, equilibrium dialysis)
- measurementSetup: human, non-enhancing tumor, oral, Unbound Ribociclib concentration, Median, 600 mg QD 5 days
propertyLabel: concentration at 5 days (nM)
Answers are plain numbers, in nM.

# return recorded concentration at 5 days for entry `CN(C)C(=O)c1cc2cnc(Nc3ccc(N4CCNCC4)cn3)nc2n1C1CCCC1` 693

----------
- assayName: CNS penetration: total and unbound drug concentrations in tumor regions, CSF and plasma (LC-MS/MS, equilibrium dialysis)
- measurementSetup: human, non-enhancing tumor and plasma, oral, 2.5 mg
propertyLabel: Kp at 120 h

# return recorded Kp at 120 h for entry `CO[C@H]1C[C@@H]2CC[C@@H](C)[C@@](O)(O2)C(=O)C(=O)N2CCCC[C@H]2C(=O)O[C@H]([C@H](C)C[C@@H]2CC[C@@H](OCCO)[C@H](OC)C2)CC(=O)[C@H](C)/C=C(\C)[C@@H](O)[C@@H](OC)C(=O)[C@H](C)C[C@H](C)/C=C/C=C/C=C/1C` 0.49

----------
- assayName: CNS penetration: total and unbound drug concentrations in tumor regions, CSF and plasma (LC-MS/MS, equilibrium dialysis)
- measurementSetup: human, enhancing tumor and plasma, oral, 5 mg
propertyLabel: Kp at 120 h
Give bare numbers.

# return recorded Kp at 120 h for entry `CO[C@H]1C[C@@H]2CC[C@@H](C)[C@@](O)(O2)C(=O)C(=O)N2CCCC[C@H]2C(=O)O[C@H]([C@H](C)C[C@@H]2CC[C@@H](OCCO)[C@H](OC)C2)CC(=O)[C@H](C)/C=C(\C)[C@@H](O)[C@@H](OC)C(=O)[C@H](C)C[C@H](C)/C=C/C=C/C=C/1C` 1.32

----------
- assayName: Plasma pharmacokinetic parameters (LC-MS/MS)
- measurementSetup: human, plasma, oral, 50 mg, T1/2, total everolimus plasma; mean
- Experimental: Pharmacokinetic evaluation was conducted as previously described[8] using a validated liquid chromatography with tandem mass spectrometry (LC-MS/MS) method.[16] […] CSF samples were intraoperatively collected.
propertyLabel: half-life (h)
Answers are plain numbers, in h.

# return recorded half-life for entry CO[C@H]1C[C@@H]2CC[C@@H](C)[C@@](O)(O2)C(=O)C(=O)N2CCCC[C@H]2C(=O)O[C@H]([C@H](C)C[C@@H]2CC[C@@H](OCCO)[C@H](OC)C2)CC(=O)[C@H](C)/C=C(\C)[C@@H](O)[C@@H](OC)C(=O)[C@H](C)C[C@H](C)/C=C/C=C/C=C/1C [Everolimus, everolimus] 29.3

----------
- assayName: CNS penetration: total and unbound drug concentrations in tumor regions, CSF and plasma (LC-MS/MS, equilibrium dialysis)
- measurementSetup: human, enhancing tumor / plasma, oral, 400 mg
propertyLabel: Kp uu at 120 h
Give bare numbers.

# return recorded Kp uu at 120 h for entry `CN(C)C(=O)c1cc2cnc(Nc3ccc(N4CCNCC4)cn3)nc2n1C1CCCC1` 5.1

----------
- assayName: CNS penetration: total and unbound drug concentrations in tumor regions, CSF and plasma (LC-MS/MS, equilibrium dialysis)
- measurementSetup: human, enhancing tumor, oral, Total everolimus, MED, 5 mg QD 5 days
propertyLabel: concentration at 5 days

# return recorded concentration at 5 days for entry CO[C@H]1C[C@@H]2CC[C@@H](C)[C@@](O)(O2)C(=O)C(=O)N2CCCC[C@H]2C(=O)O[C@H]([C@H](C)C[C@@H]2CC[C@@H](OCCO)[C@H](OC)C2)CC(=O)[C@H](C)/C=C(\C)[C@@H](O)[C@@H](OC)C(=O)[C@H](C)C[C@H](C)/C=C/C=C/C=C/1C [Everolimus, everolimus] 16.6 nM

----------
- assayName: Plasma pharmacokinetic parameters (LC-MS/MS)
- measurementSetup: human, plasma, oral, 10 mg, Cmax, total everolimus plasma; individual patients
propertyLabel: Cmax (nM)
Numbers only, in nM.

# return recorded Cmax for entry `CO[C@H]1C[C@@H]2CC[C@@H](C)[C@@](O)(O2)C(=O)C(=O)N2CCCC[C@H]2C(=O)O[C@H]([C@H](C)C[C@@H]2CC[C@@H](OCCO)[C@H](OC)C2)CC(=O)[C@H](C)/C=C(\C)[C@@H](O)[C@@H](OC)C(=O)[C@H](C)C[C@H](C)/C=C/C=C/C=C/1C` 80

----------
- assayName: CNS penetration: total and unbound drug concentrations in tumor regions, CSF and plasma (LC-MS/MS, equilibrium dialysis)
- measurementSetup: human, non-enhancing tumor, oral, Unbound Ribociclib concentration, Maximum, 600 mg QD 5 days
propertyLabel: concentration at 5 days (nM)
Give bare numbers, in nM.

# return recorded concentration at 5 days for entry `CN(C)C(=O)c1cc2cnc(Nc3ccc(N4CCNCC4)cn3)nc2n1C1CCCC1` 2340

----------
- assayName: Plasma pharmacokinetic parameters (LC-MS/MS)
- measurementSetup: human, plasma, oral, 70 mg, T1/2, total everolimus plasma; median
propertyLabel: half-life (h)
Give bare numbers, in h.

# return recorded half-life for entry `CO[C@H]1C[C@@H]2CC[C@@H](C)[C@@](O)(O2)C(=O)C(=O)N2CCCC[C@H]2C(=O)O[C@H]([C@H](C)C[C@@H]2CC[C@@H](OCCO)[C@H](OC)C2)CC(=O)[C@H](C)/C=C(\C)[C@@H](O)[C@@H](OC)C(=O)[C@H](C)C[C@H](C)/C=C/C=C/C=C/1C` 19.4

----------
- assayName: CNS penetration: total and unbound drug concentrations in tumor regions, CSF and plasma (LC-MS/MS, equilibrium dialysis)
- measurementSetup: human, non-enhancing tumor, oral, Unbound Ribociclib concentration, Minimum, 600 mg QD 5 days
propertyLabel: concentration at 5 days

# return recorded concentration at 5 days for entry `CN(C)C(=O)c1cc2cnc(Nc3ccc(N4CCNCC4)cn3)nc2n1C1CCCC1` 68 nM

----------
- assayName: CNS penetration: total and unbound drug concentrations in tumor regions, CSF and plasma (LC-MS/MS, equilibrium dialysis)
- measurementSetup: human, non-enhancing tumor, oral, Unbound Ribociclib concentration, Median, 400 mg QD 5 days
propertyLabel: concentration at 5 days
Kindly format the answer as number then unit.

# return recorded concentration at 5 days for entry CN(C)C(=O)c1cc2cnc(Nc3ccc(N4CCNCC4)cn3)nc2n1C1CCCC1 [Ribociclib, ribociclib] 170 nM

----------
- assayName: Plasma pharmacokinetic parameters (LC-MS/MS)
- measurementSetup: human, plasma, oral, 50 mg, Cmax, total everolimus plasma; median
propertyLabel: Cmax (nM)
Answers are plain numbers, in nM.

# return recorded Cmax for entry CO[C@H]1C[C@@H]2CC[C@@H](C)[C@@](O)(O2)C(=O)C(=O)N2CCCC[C@H]2C(=O)O[C@H]([C@H](C)C[C@@H]2CC[C@@H](OCCO)[C@H](OC)C2)CC(=O)[C@H](C)/C=C(\C)[C@@H](O)[C@@H](OC)C(=O)[C@H](C)C[C@H](C)/C=C/C=C/C=C/1C [Everolimus, everolimus] 130

----------
- assayName: CNS penetration: total and unbound drug concentrations in tumor regions, CSF and plasma (LC-MS/MS, equilibrium dialysis)
- measurementSetup: human, enhancing tumor, oral, Total Ribociclib concentration, Median, 400 mg QD 5 days
propertyLabel: concentration at 5 days (µM)
Answers are plain numbers, in µM.

# return recorded concentration at 5 days for entry `CN(C)C(=O)c1cc2cnc(Nc3ccc(N4CCNCC4)cn3)nc2n1C1CCCC1` 4.06

----------
- assayName: Plasma pharmacokinetic parameters (LC-MS/MS)
- measurementSetup: human, plasma, oral, 2.5 mg, T1/2, total everolimus plasma; mean
propertyLabel: half-life (h)
Answers are plain numbers, in h.

# return recorded half-life for entry CO[C@H]1C[C@@H]2CC[C@@H](C)[C@@](O)(O2)C(=O)C(=O)N2CCCC[C@H]2C(=O)O[C@H]([C@H](C)C[C@@H]2CC[C@@H](OCCO)[C@H](OC)C2)CC(=O)[C@H](C)/C=C(\C)[C@@H](O)[C@@H](OC)C(=O)[C@H](C)C[C@H](C)/C=C/C=C/C=C/1C [Everolimus, everolimus] 21.6

----------
- assayName: CNS penetration: total and unbound drug concentrations in tumor regions, CSF and plasma (LC-MS/MS, equilibrium dialysis);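 also: drug levels in patient tumor tissue from contrast-enhancing and non-enhancing regions sampled under MRI-guided neuronavigation, with plasma and CSF drawn during surgical resection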
- measurementSetup: human, non-enhancing tumor, oral, Total everolimus, MIN, 70 mg single dose
propertyLabel: concentration at 5 days (nM)
One number for each entry, in nM.

# return recorded concentration at 5 days for entry CO[C@H]1C[C@@H]2CC[C@@H](C)[C@@](O)(O2)C(=O)C(=O)N2CCCC[C@H]2C(=O)O[C@H]([C@H](C)C[C@@H]2CC[C@@H](OCCO)[C@H](OC)C2)CC(=O)[C@H](C)/C=C(\C)[C@@H](O)[C@@H](OC)C(=O)[C@H](C)C[C@H](C)/C=C/C=C/C=C/1C [Everolimus, everolimus] 6.8
